B1: E3 ubiquitin-protein ligase NEDD4-like, residues 539 to 589; numbered along this chain, Q96PU5 (parent)
chain: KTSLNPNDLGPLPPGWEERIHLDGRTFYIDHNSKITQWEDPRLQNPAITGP

Variants of: B1
MEASUREMENT_NOTES: abundance fitness (aPCA) (normalised: wild type 0, dead -1); higher = more abundant; growth selection in yeast, the domain comes from the species named
CONDITION_INFO: Homo sapiens
VALUE_KIND: abundance fitness
Enter a number only.

Task: // lookup abundance fitness for `N7L`
Result: -0.212

Task: Any idea what abundance fitness was measured for `K34T` ?
Result: -0.218

Task: May I ask what abundance fitness has been recorded for `P6K` ?
Result: 0.146

Task: # get_value(readout='abundance fitness', item= `P14D` )
Result: 0.023

Task: // abundance fitness lookup, key: `N45R`
Result: 0.003

Task: Return reported abundance fitness; argument: `T26P`
Result: -0.051

Task: Item `Q44T` has what recorded abundance fitness?
Result: -0.078

Task: Please report the recorded abundance fitness for `P41T` .
Result: -0.875

Task: Form field: reported abundance fitness of `D30Q`
Result: -0.424

Task: Recorded abundance fitness for `P13L` , please?
Result: -0.745

Task: # lookup: abundance fitness of `N32L`
Result: -0.181

Task: Param item = `I35S` ; retrieve measured abundance fitness.
Result: -0.079

Task: Name the recorded abundance fitness for `D40I` .
Result: -0.574

Task: What value of measured abundance fitness is listed for `K34C` ?
Result: -0.223

Task: Fill in the blank: the reported abundance fitness of `F27S` is ____.
Result: -0.092

Task: Fill in the blank: the reported abundance fitness of `P11G` is ____.
Result: -0.19

Task: Any idea what abundance fitness was measured for `D40L` ?
Result: -0.654

Task: Query: abundance fitness; subject: `R25D`
Result: -0.287

Task: Requested field: abundance fitness. Item: `G24V`
Result: -1.03

Task: I would be grateful if you could share the reported abundance fitness for `T2I` .
Result: 0.067

Task: # query: abundance fitness of entry `E17I`
Result: -0.432

Task: Need abundance fitness, item `E39G`
Result: -0.183

Task: Could you share which abundance fitness value was measured for `P11Y` ?
Result: -0.601

Task: Which value of abundance fitness has been reported for `N5R` in the records?
Result: -0.293

Task: Any idea what its abundance fitness is? The variant is `P13S`
Result: -0.605

Task: What abundance fitness value was documented for this variant, `Q44A` ?
Result: -0.028

Task: Query (variant): `K34F` ; field requested: abundance fitness
Result: -0.513

Task: Using the record for `L12W` , report its abundance fitness.
Result: -0.72

Task: # input variant: `I48V` ; wanted: its abundance fitness
Result: 0.132

Task: Sample `I20N` — what was its abundance fitness?
Result: -0.467

Task: Requested read-out: abundance fitness. Entry: `I48Q`
Result: 1.1

Task: What abundance fitness value was documented for this variant, `R42T` ?
Result: -0.71

Task: For the variant shown here, `T2W` , give the reported abundance fitness.
Result: -0.699

Task: I would be grateful if you could share the reported abundance fitness for `K1T` .
Result: -0.328

Task: Using the record for `H31E` , report its abundance fitness.
Result: -0.243

Task: Give its abundance fitness value. Item: `I35T`
Result: 0.04

Task: # input variant: `Q44P` ; wanted: its abundance fitness
Result: -0.135

Task: Recorded abundance fitness for `D40P` , please?
Result: -0.401

Task: If you can, please state the reported abundance fitness value of `T26D` .
Result: -0.635

Task: // abundance fitness lookup, key: `L22Y`
Result: 0.07

Task: So what does the record say about abundance fitness for `H21T` ?
Result: 0.087

Task: Consider the variant `K1E` and give its measured abundance fitness.
Result: -0.473

Task: Sample `P13Q` — what was its abundance fitness?
Result: -0.585

Task: Fill in: abundance fitness of `T49Y` is ___
Result: -0.286

Task: What does the record list as abundance fitness for `L4G` ?
Result: -0.12

Task: Consider the variant `G15C` and give its measured abundance fitness.
Result: -0.442
